Values compiled from the supplement of paper PMC11061612.

Test system: MDA-MB-231 (Breast Carcinoma)
protocol: Bliss excess, mean over the matrix (fraction); higher = more synergy
Binary classification by Bliss excess, with -0.03 as an inclusive lower bound for Y; all other cases are N.

# input Quick check, Bliss excess >= -0.03? CN(CCO)CC[C@H](CSc1ccccc1)Nc1ccc(S(=O)(=O)NC(=O)c2ccc(N3CCC([C@@H](O)c4ccccc4-c4ccc(Cl)cc4)CC3)cc2)cc1S(=O)(=O)C(F)(F)F [AZD4320] + Nc1ccn([C@@H]2O[C@H](CO)[C@@H](O)C2(F)F)c(=O)n1 [Gemcitabine] (first compound max 1 µM, 7x7, partner max 0.3 µM)
# output Y

# input Is reported Bliss excess greater than or equal to -0.03 here: CC1(C)CCC(CN2CCN(c3ccc(C(=O)NS(=O)(=O)c4ccc(NCC5CCOCC5)c([N+](=O)[O-])c4)c(Oc4cnc5[nH]ccc5c4)c3)CC2)=C(c2ccc(Cl)cc2)C1 [Venetoclax] + CCN(CCO)CCCOc1ccc2c(Nc3cc(CC(=O)Nc4cccc(F)c4)[nH]n3)ncnc2c1 [AZD2811] (first compound max 1 µM, 7x7, partner max 1 µM)
# output Y

# input Say whether C[C@@H](Nc1cc(F)cc(F)c1)c1cc(C(=O)N(C)C)cc2c(=O)cc(N3CCOCC3)oc12 [AZD8186] + CC(=O)c1c(C)c2cnc(Nc3ccc(N4CCNCC4)cn3)nc2n(C2CCCC2)c1=O [Palbociclib] (first compound max 10 µM, 7x7, partner max 10 µM) shows Bliss excess of -0.03 or more.
# output Y

# input Evaluate Cn1cnc2c(F)c(Nc3ccc(Br)cc3Cl)c(C(=O)NOCCO)cc21 [Selumetinib] + C[C@@H]1COCCN1C2=NC(=NC(=C2)C3(CC3)[S@](=N)(=O)C)C4=C5C=CNC5=NC=C4 [AZD6738] (first compound max 10 µM, 7x7, partner max 10 µM) : Bliss excess at minimum -0.03?
# output Y

# input State whether the measured Bliss excess reaches -0.03, counting equality as reaching it, for C[C@@H](Nc1cc(F)cc(F)c1)c1cc(C(=O)N(C)C)cc2c(=O)cc(N3CCOCC3)oc12 [AZD8186] + C1CN(CCC1(C(=O)N[C@@H](CCO)C2=CC=C(C=C2)Cl)N)C3=NC=NC4=C3C=CN4 [AZD5363] (first compound max 10 µM, 7x7, partner max 10 µM)
# output Y

# input hey, is Bliss excess for this one >= -0.03? Cc1c2c(nn1C)CSCc1cc(n(C)n1)CSc1cc(c3ccccc3c1)OCCCc1c(C(=O)O)n(C)c3c-2c(Cl)ccc13 [AZD5991] + C[C@@H](Nc1cc(F)cc(F)c1)c1cc(C(=O)N(C)C)cc2c(=O)cc(N3CCOCC3)oc12 [AZD8186] (first compound max 1 µM, 7x7, partner max 3 µM)
# output Y

# input Item Cn1cnc2c(F)c(Nc3ccc(Br)cc3Cl)c(C(=O)NOCCO)cc21 [Selumetinib] + CCN(CCO)CCCOc1ccc2c(Nc3cc(CC(=O)Nc4cccc(F)c4)[nH]n3)ncnc2c1 [AZD2811] (first compound max 10 µM, 7x7, partner max 1 µM) with Bliss excess of -0.03 or above?
# output Y

# input Does Cc1c2c(nn1C)CSCc1cc(n(C)n1)CSc1cc(c3ccccc3c1)OCCCc1c(C(=O)O)n(C)c3c-2c(Cl)ccc13 [AZD5991] + Nc1ccn([C@@H]2O[C@H](CO)[C@@H](O)C2(F)F)c(=O)n1 [Gemcitabine] (first compound max 1 µM, 7x7, partner max 0.3 µM) have a reported Bliss excess of at least -0.03?
# output N

====

Test system: NCI-H2595 (Mesothelioma)
protocol: Bliss excess, mean over the matrix (fraction); higher = more synergy
quantityMeasured: Bliss excess
# respond with the number and nothing more

Cc1c2c(nn1C)CSCc1cc(n(C)n1)CSc1cc(c3ccccc3c1)OCCCc1c(C(=O)O)n(C)c3c-2c(Cl)ccc13 [AZD5991] + Cc1cc2ncnn2cc1Nc1ncc2c(n1)n(C1CCOCC1)c(=O)n2C [AZD7648] (first compound max 1 µM, 7x7, partner max 10 µM) : 0.0034

# input # get_value(readout='Bliss excess', item= C[C@@H](c1ccc2nccn2c1)n1nnc2ncc(-c3cnn(C)c3)nc21 [Savolitinib] + CC1(C)CCC(CN2CCN(c3ccc(C(=O)NS(=O)(=O)c4ccc(NCC5CCOCC5)c([N+](=O)[O-])c4)c(Oc4cnc5[nH]ccc5c4)c3)CC2)=C(c2ccc(Cl)cc2)C1 [Venetoclax] (first compound max 1 µM, 7x7, partner max 1 µM) )
# output 0.006

# input Using the record for CN(CCO)CC[C@H](CSc1ccccc1)Nc1ccc(S(=O)(=O)NC(=O)c2ccc(N3CCC([C@@H](O)c4ccccc4-c4ccc(Cl)cc4)CC3)cc2)cc1S(=O)(=O)C(F)(F)F [AZD4320] + Cn1cnc2c(F)c(Nc3ccc(Br)cc3Cl)c(C(=O)NOCCO)cc21 [Selumetinib] (first compound max 1 µM, 7x7, partner max 3 µM) , report its Bliss excess.
# output 0.04

====

combination Emax reference
Tested on: LS-513 (Colorectal Carcinoma)
protocol: combination Emax (second highest fraction inhibited in the dose matrix, 72 h); higher = more inhibition; extreme values may be limits of the assay
Just the number, please.

N#Cc1cnc(Nc2cc(NC[C@H]3CNCCO3)c(C(F)(F)F)cn2)cn1 [SRA737] + C=CCn1c(=O)c2cnc(Nc3ccc(N4CCN(C)CC4)cc3)nc2n1-c1cccc(C(C)(C)O)n1 [AZD1775] (first compound max 10 µM, partner max 1 µM) : 0.84
CC(=O)c1c(C)c2cnc(Nc3ccc(N4CCNCC4)cn3)nc2n(C2CCCC2)c1=O [Palbociclib] + Cc1c2c(nn1C)CSCc1cc(n(C)n1)CSc1cc(c3ccccc3c1)OCCCc1c(C(=O)O)n(C)c3c-2c(Cl)ccc13 [AZD5991] (first compound max 10 µM, 7x7, partner max 1 µM) : 0.658
Cn1cnc2c(F)c(Nc3ccc(Br)cc3Cl)c(C(=O)NOCCO)cc21 [Selumetinib] + C=CCn1c(=O)c2cnc(Nc3ccc(N4CCN(C)CC4)cc3)nc2n1-c1cccc(C(C)(C)O)n1 [AZD1775] (first compound max 10 µM, partner max 1 µM) : 0.904

Now for the compound whose combination Emax we want.
# input What does the data say about its combination Emax? Entry: CS(=O)(=O)CCNCc1ccc(-c2ccc3ncnc(Nc4ccc(OCc5cccc(F)c5)c(Cl)c4)c3c2)o1 [Lapatinib] + C[C@@H](Oc1cc(-c2cnn(C3CCNCC3)c2)cnc1N)c1c(Cl)ccc(F)c1Cl [Crizotinib] (first compound max 10 µM, 7x7, partner max 10 µM)
# output 0.966

====

Test system: SW1088 (Low Grade Glioma)
protocol: combination Emax (second highest fraction inhibited in the dose matrix, 72 h); higher = more inhibition; extreme values may be limits of the assay
Some compounds, each annotated with its measured combination Emax.

C[C@@H]1COCCN1c1cc(C2([S@](C)(=N)=O)CC2)nc(-c2ccnc3[nH]ccc23)n1 [AZD6738] + Nc1ccn([C@@H]2O[C@H](CO)[C@@H](O)C2(F)F)c(=O)n1 [Gemcitabine] (first compound max 10 µM, 7x7, partner max 0.3 µM) : 0.731

# input I would be grateful if you could share the reported combination Emax for Cc1c2c(nn1C)CSCc1cc(n(C)n1)CSc1cc(c3ccccc3c1)OCCCc1c(C(=O)O)n(C)c3c-2c(Cl)ccc13 [AZD5991] + CC(=O)O[C@H]1C(=O)[C@@]2(C)[C@H]([C@H](OC(=O)c3ccccc3)[C@]3(O)C[C@H](OC(=O)[C@H](O)[C@@H](NC(=O)c4ccccc4)c4ccccc4)C(C)=C1C3(C)C)[C@]1(OC(C)=O)CO[C@@H]1C[C@@H]2O [Paclitaxel] (first compound max 1 µM, 7x7, partner max 3 µM) .
# output 0.776

====

Tested on: J82 (Bladder Carcinoma)
protocol: combination Emax (second highest fraction inhibited in the dose matrix, 72 h); higher = more inhibition; extreme values may be limits of the assay
quantityMeasured: combination Emax
// return just the number, without any unit appended

CN(CCO)CC[C@H](CSc1ccccc1)Nc1ccc(S(=O)(=O)NC(=O)c2ccc(N3CCC([C@@H](O)c4ccccc4-c4ccc(Cl)cc4)CC3)cc2)cc1S(=O)(=O)C(F)(F)F [AZD4320] + C1CN(CCC1(C(=O)N[C@@H](CCO)C2=CC=C(C=C2)Cl)N)C3=NC=NC4=C3C=CN4 [Capivasertib] (first compound max 1 µM, 7x7, partner max 3 µM) : 0.164

# input For COc1cccc(OCCCN)c1-c1cc(Nc2cnc(C#N)cn2)n[nH]1 [Prexasertib] + C[C@@H]1COCCN1C2=NC(=NC(=C2)C3(CC3)[S@](=N)(=O)C)C4=C5C=CNC5=NC=C4 [AZD6738] (first compound max 1 µM, 7x7, partner max 10 µM) , what is its reported combination Emax?
# output 0.522

====

Tested on: CTV-1 (T-Lymphoblastic Leukemia)
protocol: Bliss excess, mean over the matrix (fraction); higher = more synergy
Assign class by Bliss excess: not lower than 0.001 means 1 (yes); lower than 0.001 means 0 (no).

Consider the following illustrative entries.
C=CCn1c(=O)c2cnc(Nc3ccc(N4CCN(C)CC4)cc3)nc2n1-c1cccc(C(C)(C)O)n1 [AZD1775] + C1CN(CCC1(C(=O)N[C@@H](CCO)C2=CC=C(C=C2)Cl)N)C3=NC=NC4=C3C=CN4 [Capivasertib] (first compound max 3 µM, partner max 3 µM) : 1 (yes)
COc1cc2c(cc1OCCCCCOc1cc3c(cc1OC)C(=O)N1C=C(C)C[C@H]1C=N3)N=C[C@@H]1CC(C)=CN1C2=O [SG3199] + O=C(c1cc(Cc2n[nH]c(=O)c3ccccc23)ccc1F)N1CCN(C(=O)C2CC2)CC1 [Olaparib] (first compound max 0.001 µM, 7x7, partner max 10 µM) : 0 (no)
Cc1cc2ncnn2cc1Nc1ncc2c(n1)n(C1CCOCC1)c(=O)n2C [AZD7648] + C=CCn1c(=O)c2cnc(Nc3ccc(N4CCN(C)CC4)cc3)nc2n1-c1cccc(C(C)(C)O)n1 [AZD1775] (first compound max 10 µM, partner max 1 µM) : 1 (yes)
CN(CCO)CC[C@H](CSc1ccccc1)Nc1ccc(S(=O)(=O)NC(=O)c2ccc(N3CCC([C@@H](O)c4ccccc4-c4ccc(Cl)cc4)CC3)cc2)cc1S(=O)(=O)C(F)(F)F [AZD4320] + C[C@@H](Nc1cc(F)cc(F)c1)c1cc(C(=O)N(C)C)cc2c(=O)cc(N3CCOCC3)oc12 [AZD8186] (first compound max 1 µM, 7x7, partner max 3 µM) : 1 (yes)

# input Threshold query (Bliss excess >= 0.001) on CC1(C)CCC(CN2CCN(c3ccc(C(=O)NS(=O)(=O)c4ccc(NCC5CCOCC5)c([N+](=O)[O-])c4)c(Oc4cnc5[nH]ccc5c4)c3)CC2)=C(c2ccc(Cl)cc2)C1 [Venetoclax] + CN(C)CCCOc1ccc(-c2ccc3ncc4c(c3c2)n(C2CCOCC2)c(=O)n4C)cn1 [AZD0156] (first compound max 1 µM, 7x7, partner max 1 µM)
# output 0 (no)

# input API: above_or_equal(metric=Bliss excess, cutoff=0.001) for item CCN(CCO)CCCOc1ccc2c(Nc3cc(CC(=O)Nc4cccc(F)c4)[nH]n3)ncnc2c1 [AZD2811] + C[C@@H]1COCCN1C2=NC(=NC(=C2)C3(CC3)[S@](=N)(=O)C)C4=C5C=CNC5=NC=C4 [AZD6738] (first compound max 1 µM, 7x7, partner max 10 µM)
# output 0 (no)

# input Answer whether Bliss excess of CCN(CCO)CCCOc1ccc2c(Nc3cc(CC(=O)Nc4cccc(F)c4)[nH]n3)ncnc2c1 [AZD2811] + C=CCn1c(=O)c2cnc(Nc3ccc(N4CCN(C)CC4)cc3)nc2n1-c1cccc(C(C)(C)O)n1 [AZD1775] (first compound max 1 µM, partner max 1 µM) is greater than or equal to 0.001.
# output 1 (yes)
